Sourced from patent US10662235B2

Would you kindly list Second Scan Tm for each of these molecules?
# test-summary: Thermal stability by differential scanning calorimetry
# Type: physicochemical
# measurement-context: cysteine-NEM conjugates, second identical scan
Numeric only. Scale: °C

Given the molecule S70C (protein, EGFR binding FN3 domain; EGFR-binding FN3 domain) chain 1: MLPAPKNLVVSEVTEDSARLSWDDPWAFYESFLIQYQESEKVGEAIVLTVPGSERSYDLTGLKPGTEYTVCIYGVHNVYKDTNMRGLPLSAIFTT chain 2: LPAPKNLVVSEVTEDSARLSWDDPWAFYESFLIQYQESEKVGEAIVLTVPGSERSYDLTGLKPGTEYTVCIYGVHNVYKDTNMRGLPLSAIFTT , what is its reported Second Scan Tm? 72

And then S30C (protein, EGFR binding FN3 domain; EGFR-binding FN3 domain) chain 1: MLPAPKNLVVSEVTEDSARLSWDDPWAFYECFLIQYQESEKVGEAIVLTVPGSERSYDLTGLKPGTEYTVSIYGVHNVYKDTNMRGLPLSAIFTT chain 2: LPAPKNLVVSEVTEDSARLSWDDPWAFYECFLIQYQESEKVGEAIVLTVPGSERSYDLTGLKPGTEYTVSIYGVHNVYKDTNMRGLPLSAIFTT , what is it? 71

Lookup S20C (protein, EGFR binding FN3 domain; EGFR-binding FN3 domain) chain 1: MLPAPKNLVVSEVTEDSARLCWDDPWAFYESFLIQYQESEKVGEAIVLTVPGSERSYDLTGLKPGTEYTVSIYGVHNVYKDTNMRGLPLSAIFTT chain 2: LPAPKNLVVSEVTEDSARLCWDDPWAFYESFLIQYQESEKVGEAIVLTVPGSERSYDLTGLKPGTEYTVSIYGVHNVYKDTNMRGLPLSAIFTT 70
